target: NS3 ATPase (Hepatitis C virus genotype 1b)
Sequence (Q9WMX2 1190-1657 limits assumed): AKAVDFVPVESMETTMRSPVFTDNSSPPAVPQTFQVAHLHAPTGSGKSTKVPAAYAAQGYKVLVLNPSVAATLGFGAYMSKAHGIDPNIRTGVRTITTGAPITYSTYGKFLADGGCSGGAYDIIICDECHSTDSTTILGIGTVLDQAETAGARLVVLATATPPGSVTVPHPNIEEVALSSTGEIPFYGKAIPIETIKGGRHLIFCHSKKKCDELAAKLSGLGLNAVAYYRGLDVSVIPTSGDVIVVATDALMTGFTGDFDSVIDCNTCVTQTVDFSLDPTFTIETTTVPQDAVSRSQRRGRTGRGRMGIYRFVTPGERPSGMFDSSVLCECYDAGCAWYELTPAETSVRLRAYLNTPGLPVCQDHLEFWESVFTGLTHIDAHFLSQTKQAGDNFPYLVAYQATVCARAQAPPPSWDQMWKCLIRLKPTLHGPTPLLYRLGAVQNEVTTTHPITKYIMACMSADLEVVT
pIC50: −log10 of the molar value.
Quantity Name: pIC50

Query: pIC50; subject: O=c1c2ccccc2[se]n1-c1ccccc1 [Ebselen, 2-phenyl-1,2-benzisoselenazol-3(2H)-one]
~6.00
